All values here come from PubChem BioAssay (NCATS).

Test system: CP217
Assay: qHTS profiling for inhibitors of Plasmodium falciparum proliferation (AID 504749); further: nearly all actives have a fitted effect of over 60% in size
Details: P. falciparum in erythrocytes, SYBR Green DNA, 72 h; series mostly up to 28.7 µM
Experimental: NIH National Institute of Allergy and Infectious Diseases [NIAID] NIH Chemical Genomics Center [NCGC] […] Because mature erythrocytes lack DNA, only Plasmodium-derived DNA is detected. NCGC Assay Protocol Summary: The SYBR Green viability assay was adapted from a method described previously (Plouffe et al., 2008). […] The following morning, fluorescence intensity at 485(14) nm excitation and 535(25) nm emission wavelengths was measured on an EnVision (Perkin Elmer) plate reader. […]
Records with an inconclusive call do not appear. Calls of active or inactive are those of the source. The call rests on the fitted dose curve; in most records, active means well fitted inhibition curve with a large enough effect; inconclusive means small, poorly fitted or top-dose-only effect; inactive means flat fitted curve, though single readings scatter.
Labels: active, inactive

compound	label
CS(=O)(=O)Nc1ccc([N+](=O)[O-])cc1Oc1ccccc1	inactive
O=C1N(c2ccccc2)c2ccccc2C1(Cc1ccncc1)Cc1ccncc1	inactive
CC(C)Cc1ccc(C(C)C(=O)O)cc1 (configuration not stated)	inactive
CN1CCC(=C2c3ccccc3C=Cc3ccccc32)CC1	inactive
OCCN1CCN(CCCN2c3ccccc3Sc3ccc(C(F)(F)F)cc32)CC1	active
CC(=O)OCC(CCn1cnc2cnc(N)nc21)COC(C)=O	inactive
NC12CC3CC(CC(C3)C1)C2	inactive
Cc1cc(C(C)(C)C)cc(C)c1CC1=NCCN1	inactive
CCCNCC(O)COc1ccccc1C(=O)CCc1ccccc1 (configuration not stated)	active
Clc1ccc(C(c2ccccc2Cl)C(Cl)Cl)cc1 (configuration not stated)	inactive
Clc1ccc2nsnc2c1NC1=NCCN1	inactive
CCOC(=O)C(C)(C)Oc1ccc(Cl)cc1	inactive
